These compounds were tested on human CTPS1 (Homo sapiens (Human)); IC50 is the recorded read-out.
Sequence (P17812 whole entry): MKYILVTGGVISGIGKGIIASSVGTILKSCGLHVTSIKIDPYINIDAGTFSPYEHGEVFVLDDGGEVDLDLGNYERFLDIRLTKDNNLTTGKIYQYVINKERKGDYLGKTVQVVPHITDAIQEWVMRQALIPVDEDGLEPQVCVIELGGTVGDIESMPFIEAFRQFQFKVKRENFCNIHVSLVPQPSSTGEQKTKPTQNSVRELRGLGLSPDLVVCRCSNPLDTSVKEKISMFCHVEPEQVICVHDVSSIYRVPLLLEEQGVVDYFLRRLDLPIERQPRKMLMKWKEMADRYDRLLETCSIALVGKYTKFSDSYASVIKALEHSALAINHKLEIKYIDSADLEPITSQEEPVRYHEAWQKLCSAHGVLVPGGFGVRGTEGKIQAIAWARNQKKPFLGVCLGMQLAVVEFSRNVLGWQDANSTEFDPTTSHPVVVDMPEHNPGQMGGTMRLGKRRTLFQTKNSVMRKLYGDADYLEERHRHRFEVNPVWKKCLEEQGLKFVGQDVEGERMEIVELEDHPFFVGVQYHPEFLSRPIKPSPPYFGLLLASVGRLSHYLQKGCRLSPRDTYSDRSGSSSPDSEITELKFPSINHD

# Compound, Recorded value
measured = [
    ("CCOc1cncc(-c2cnc(C(=O)N[C@H](CCN3CC[C@H](F)C3)c3cc(NS(=O)(=O)C4CC4)ccn3)s2)n1 [I-126]", "< 100 nM"),
]

Observed IC50, human CTPS1 (Homo sapiens (Human)), CCOc1cncc(-c2cnc(C(=O)NC(c3cc(NS(=O)(=O)C4CC4)ccn3)C3CCNCC3)s2)n1 (stereo not shown) [I-153] : < 100 nM

Observed IC50, human CTPS1 (Homo sapiens (Human)), Cc1cc2c(-c3cnc(C(=O)NCc4cc(NS(=O)(=O)C5CC5)ccn4)s3)cncn2n1 [I-185] : 100 to 1000 nM

Observed IC50, human CTPS1 (Homo sapiens (Human)), C[C@@H]1Cc2nc(C(=O)NCc3cc(NS(=O)(=O)C4CC4)ccn3)cnc2N(C2CCC2)C1 [I-264] : ≥ 1000 nM

These measurements were taken from patent US12331046B2.
